tested on: ducksalad (Heteranthera limosa); test: Test B flooded paddy test; type: in vivo; settings: 250 g ai/ha; flooded paddy test; visual rating on 0 to 100 scale (0 no effect, 100 complete control) after 13 to 15 days

MOLECULE: O=C1CCCC(O)=C1C(=O)c1cnc(-c2cccc(Cl)c2)n(CC2CCCO2)c1=O (stereo not drawn)
Plant response rating, Flood, Ducksalad: 80

MOLECULE: CCn1c(-c2cccc(Cl)c2)ncc(C(=O)C2=C(O)CCCC2=O)c1=O
Plant response rating, Flood, Ducksalad: 80

MOLECULE: CCCCn1c(-c2cc(F)cc(F)c2)ncc(C(=O)C2=C(O)CCCC2=O)c1=O
Plant response rating, Flood, Ducksalad: 80

* * *

system: ducksalad (Heteranthera limosa); assay: Test B flooded paddy test; assay type: in vivo; details: Flood (flooded paddy test), 31 g ai/ha; scale of 0 to 100 where 0 is no effect and 100 is complete control; 13 to 15 days

SMILES CODE: O=C1CCCC(O)=C1C(=O)c1cnc(-c2ccccc2)n(-c2cccc(F)c2)c1=O
Plant response rating, Ducksalad: 0
--
SMILES CODE: Cc1ccc(-n2c(-c3ccccc3)ncc(C(=O)C3=C(O)CCCC3=O)c2=O)cc1
Plant response rating, Ducksalad: 30
--
SMILES CODE: CCCCc1ncc(C(=O)C2=C(O)CCCC2=O)c(=O)n1-c1cccc(C)c1
Plant response rating, Ducksalad: 0

* * *

System: giant foxtail (Setaria faberii)
Test: Test A pre-/postemergence plant response
Assay type: in vivo
Conditions: Preemergence, 500 g ai/ha; 0 to 100 scale, 0 = no effect, 100 = complete control
Excerpt: Seeds of barnyardgrass (Echinochloa crus-galli), large crabgrass (Digitaria sanguinalis), giant foxtail (Setaria faberii), morningglory (Ipomoea spp.), pigweed (Amaranthus retroflexus), velvetleaf (Abutilon theophrasti), wheat (Triticum aestivum) and corn (Zea mays) were planted into a blend of loam soil and sand and treated preemergence with a directed soil spray using test chemicals formulated in a non-phytotoxic solvent mixture which included a surfactant. […]
# Plant response rating, Foxtail, Giant listing for each entry below

COMPOUND: C=CCCn1c(-c2ccccc2)ncc(C(=O)C2=C(O)CCCC2=O)c1=O
Plant response rating, Foxtail, Giant: 70
--
COMPOUND: CCc1ccc(-n2c(-c3cccc(Cl)c3)ncc(C(=O)C3=C(O)CCCC3=O)c2=O)cc1
Plant response rating, Foxtail, Giant: 40
--
COMPOUND: O=C1CCCC(O)=C1C(=O)c1cnc(-c2ccccc2)n(C2CC[S+]([O-])CC2)c1=O (mixture of isomers)
Plant response rating, Foxtail, Giant: 70

* * *

# Plant response rating, Bermudagrass listing for each entry below
system: bermudagrass (Cynodon dactylon); assay: Test B pre-/postemergence plant response; format: in vivo; conditions: Postemergence, 31 g ai/ha; 0 to 100 scale (0 no effect, 100 complete control)

COMPOUND: CCCCn1c(-c2cc(F)cc(F)c2)ncc(C(=O)C2=C(O)C3CCC(C3)C2=O)c1=O (stereo not shown)
Plant response rating, Bermudagrass: 80

COMPOUND: COCCn1c(-c2cccc(F)c2)ncc(C(=O)C2=C(O)CCCC2=O)c1=O
Plant response rating, Bermudagrass: 80

COMPOUND: CCCn1c(-c2cc(F)cc(F)c2)ncc(C(=O)C2=C(O)CCCC2=O)c1=O
Plant response rating, Bermudagrass: 95

COMPOUND: Cc1ccc(Cl)cc1-n1c(-c2cccc(F)c2)ncc(C(=O)C2=C(O)CCCC2=O)c1=O
Plant response rating, Bermudagrass: 98

COMPOUND: COCCn1c(-c2cccc(F)c2)ncc(C(=O)C2=C(O)C3CCC(C3)C2=O)c1=O (stereo not shown)
Plant response rating, Bermudagrass: 98

COMPOUND: CCc1ccccc1-n1c(-c2ccccc2)ncc(C(=O)C2=C(O)CCCC2=O)c1=O
Plant response rating, Bermudagrass: 90

COMPOUND: CCn1c(-c2ccccc2)ncc(C(=O)C2=C(O)C3CCC(C3)C2=O)c1=O (stereo not shown)
Plant response rating, Bermudagrass: 95

* * *

tested on: wild oat (Avena fatua); experiment: Test B pre-/postemergence plant response; format: in vivo; details: Postemergence, 250 g ai/ha; scale 0 to 100 (0 no effect, 100 complete control); 13 to 15 days
TEST READOUT: Plant response rating, Oat, Wild

COMPOUND: CCCn1c(-c2cccc(Cl)c2)ncc(C(=O)C2=C(O)CCCC2=O)c1=O
MEAS VALUE: 50

COMPOUND: CCCn1c(-c2cc(C)cc(C)c2)ncc(C(=O)C2=C(O)CCCC2=O)c1=O
MEAS VALUE: 50

COMPOUND: Cc1ccc(Cl)cc1-n1c(-c2cccc(F)c2)ncc(C(=O)C2=C(O)CCCC2=O)c1=O
MEAS VALUE: 98

COMPOUND: O=C1CCCC(O)=C1C(=O)c1cnc(-c2cc(F)cc(F)c2)n(C2CCCCC2)c1=O
MEAS VALUE: 100

COMPOUND: CCCCn1c(-c2cc(F)cc(F)c2)ncc(C(=O)C2=C(O)C3CCC(C3)C2=O)c1=O (centres unmarked)
MEAS VALUE: 100

* * *

system: rice (Oryza sativa); experiment: Test B flooded paddy test; format: in vivo; details: Flood (flooded paddy test), 125 g ai/ha; scale 0 to 100, 0 is no effect, 100 is complete control; 13 to 15 days
# Plant response rating, Rice listing for each entry below

MOLECULE: CCCCn1c(-c2cccc(F)c2)ncc(C(=O)C2=C(O)CCCC2=O)c1=O [Compound 125]
Plant response rating, Rice: 0

MOLECULE: O=C1CCCC(O)=C1C(=O)c1cnc(-c2cccc(F)c2)n(CCC(F)(F)F)c1=O [Compound 208]
Plant response rating, Rice: 0

MOLECULE: O=C1CCCC(O)=C1C(=O)c1cnc(-c2ccccc2)n(-c2ccc(F)cc2F)c1=O [Compound 57]
Plant response rating, Rice: 15

* * *

tested on: johnsongrass (Sorghum halepense); experiment: Test B pre-/postemergence plant response; type: in vivo; settings: Postemergence, 250 g ai/ha; scale 0 to 100 (0 no effect, 100 complete control); 13 to 15 days

SMILES CODE: CCCn1c(-c2cc(C)cc(C)c2)ncc(C(=O)C2=C(O)CCCC2=O)c1=O
Plant response rating, Johnsongrass: 65
--
SMILES CODE: COCCn1c(-c2cccc(Cl)c2)ncc(C(=O)C2=C(O)CCCC2=O)c1=O
Plant response rating, Johnsongrass: 60
--
SMILES CODE: Cc1ccc(F)cc1-n1c(-c2cccc(Cl)c2)ncc(C(=O)C2=C(O)CCCC2=O)c1=O
Plant response rating, Johnsongrass: 100

* * *

# Barnyardgrass plant response rating listing for each entry below
test system: barnyardgrass (Echinochloa crus-galli); experiment: Test B flooded paddy test; format: in vivo; settings: Flood, 31 g ai/ha; scale 0 to 100 (0 no effect, 100 complete control)

MOLECULE: CCCCn1c(-c2cccc(F)c2)ncc(C(=O)C2=C(O)C3CCC(C3)C2=O)c1=O (stereo not drawn)
Barnyardgrass plant response rating: 0
//
MOLECULE: CC(C)n1c(-c2ccccc2)ncc(C(=O)C2=C(O)CCCC2=O)c1=O
Barnyardgrass plant response rating: 20
//
MOLECULE: Cc1cccc(-c2ncc(C(=O)C3=C(O)CCCC3=O)c(=O)n2C2CCCCC2)c1
Barnyardgrass plant response rating: 0
//
MOLECULE: Cc1cc(F)ccc1-n1c(-c2cccc(Br)c2)ncc(C(=O)C2=C(O)CCCC2=O)c1=O
Barnyardgrass plant response rating: 0
//
MOLECULE: CCCn1c(-c2ccc(F)cc2)ncc(C(=O)C2=C(O)CCCC2=O)c1=O
Barnyardgrass plant response rating: 15
//
MOLECULE: CCCc1ncc(C(=O)C2=C(O)CCCC2=O)c(=O)n1Cc1ccccc1
Barnyardgrass plant response rating: 0
//
MOLECULE: Cc1cc(-n2c(-c3cccc(F)c3)ncc(C(=O)C3=C(O)CCCC3=O)c2=O)ccc1F
Barnyardgrass plant response rating: 0
//
MOLECULE: O=C1CCCC(O)=C1C(=O)c1cnc(-c2cc(F)cc(F)c2)n(-c2ccccc2)c1=O
Barnyardgrass plant response rating: 0
//
MOLECULE: CCCn1c(-c2ccco2)ncc(C(=O)C2=C(O)CCCC2=O)c1=O
Barnyardgrass plant response rating: 0
//
MOLECULE: CCCCn1c(-c2ccccc2)ncc(C(=O)C2=C(O)CCCC2=O)c1=O
Barnyardgrass plant response rating: 30
//
MOLECULE: Cc1ccc(Cl)cc1-n1c(-c2cccc(F)c2)ncc(C(=O)C2=C(O)CCCC2=O)c1=O
Barnyardgrass plant response rating: 0
//
MOLECULE: O=C(C1=C(O)C2CCC(C2)C1=O)c1cnc(-c2ccccc2)n(C2CCCCC2)c1=O (stereo not drawn)
Barnyardgrass plant response rating: 0
//
MOLECULE: O=C1CCCC(O)=C1C(=O)c1cnc(-c2ccccc2)n(C2CC[S+]([O-])CC2)c1=O (mixture of isomers)
Barnyardgrass plant response rating: 0
//
MOLECULE: O=C1CCCC(O)=C1C(=O)c1cnc(-c2cc(F)cc(F)c2)n(C2CCCCC2)c1=O
Barnyardgrass plant response rating: 0
//
MOLECULE: O=C1CCCC(O)=C1C(=O)c1cnc(-c2ccc(F)cc2)n(C2CCCCC2)c1=O
Barnyardgrass plant response rating: 0
